experiment: Biochemical Assay: A variety of Ras proteins may be inhibited by compounds of the present invention (e.g., K-Ras, N-Ras, H-Ras, and mutants thereof at positions 12, 13 and 61, such as G12C, G12D, G12V, G12S, G13C, G13D, and Q61L, and others described herein). The purpose of this biochemical assay is to measure the ability of test compounds to covalently label nucleotide-loaded K-Ras isoforms. […] The sample is incubated at 25? C. for a time period of up to 24 hours prior to quenching by the addition of 10 uL of 5% Formic Acid. Quenched samples are centrifuged at 15000 rpm for 15 minutes in a benchtop centrifuge before injecting a 10 uL aliquot onto a reverse phase C4 column and eluting into the mass spectrometer with an increasing acetonitrile gradient in the mobile phase. Analysis of raw data may be carried out using Waters MassLynx MS software, with % bound calculated from the deconvoluted protein peaks for labeled and unlabeled K-Ras.
experimental_readout: IC50

Suppose we examine the compound CCn1c(-c2cccnc2C(C)OC)c2c3cc(ccc31)-c1cc(O)cc(c1)C[C@H](NC(=O)[C@H](C(C)C)N(C)C(=O)c1ncc(NC(=O)/C=C/CN(C)C)n1C)C(=O)N1CCC[C@H](N1)C(=O)OCC(C)(C)C2 (stereo not given in full) ; what IC50 value has been reported?
< 0.01 µM

---

experiment: Biochemical Assay: A variety of Ras proteins may be inhibited by compounds of the present invention (e.g., K-Ras, N-Ras, H-Ras, and mutants thereof at positions 12, 13 and 61, such as G12C, G12D, G12V, G12S, G13C, G13D, and Q61L, and others described herein). The purpose of this biochemical assay is to measure the ability of test compounds to covalently label nucleotide-loaded K-Ras isoforms. […] The sample is incubated at 25? C. for a time period of up to 24 hours prior to quenching by the addition of 10 uL of 5% Formic Acid. Quenched samples are centrifuged at 15000 rpm for 15 minutes in a benchtop centrifuge before injecting a 10 uL aliquot onto a reverse phase C4 column and eluting into the mass spectrometer with an increasing acetonitrile gradient in the mobile phase. Analysis of raw data may be carried out using Waters MassLynx MS software, with % bound calculated from the deconvoluted protein peaks for labeled and unlabeled K-Ras.
experimental_readout: IC50

compound | IC50
C=CC(=O)N1CC(OC[C@H](C(=O)N[C@H]2Cc3cc(cc(C(F)F)c3)-c3ccc4c(c3)c(c(-c3cccnc3C(C)OC)n4CC)CC(C)(C)COC(=O)[C@@H]3CCCN(N3)C2=O)C(C)C)C1 (stereo partly drawn) | > 10 µM

Suppose we examine the compound CCn1c(-c2cccnc2C(C)OC)c2c3cc(ccc31)N1CCO[C@@H](C[C@H](NC(=O)[C@@H](COC3CCN(C(=O)C#CC(C)(C)N(C)C)CC3)C(C)C)C(=O)N3CCC[C@H](N3)C(=O)OCC(C)(C)C2)C1 (stereo partly drawn) ; what IC50 value has been reported?
> 10 µM

---

experiment: Biochemical Assay: A variety of Ras proteins may be inhibited by compounds of the present invention (e.g., K-Ras, N-Ras, H-Ras, and mutants thereof at positions 12, 13 and 61, such as G12C, G12D, G12V, G12S, G13C, G13D, and Q61L, and others described herein). The purpose of this biochemical assay is to measure the ability of test compounds to covalently label nucleotide-loaded K-Ras isoforms. […] The sample is incubated at 25? C. for a time period of up to 24 hours prior to quenching by the addition of 10 uL of 5% Formic Acid. Quenched samples are centrifuged at 15000 rpm for 15 minutes in a benchtop centrifuge before injecting a 10 uL aliquot onto a reverse phase C4 column and eluting into the mass spectrometer with an increasing acetonitrile gradient in the mobile phase. Analysis of raw data may be carried out using Waters MassLynx MS software, with % bound calculated from the deconvoluted protein peaks for labeled and unlabeled K-Ras.
experimental_readout: IC50

Known results for molecules:
molecule | IC50
C=CC(=O)N1CC[C@H](C(=O)N(C)C(C(=O)N[C@H]2C[C@H]3CN(CCO3)c3ccc4c(c3)c(c(-c3cccnc3C(C)OC)n4CC)CC(C)(C)COC(=O)[C@@H]3CCCN(N3)C2=O)C(C)C)C1 (stereo partly drawn) | > 10 µM
CCn1c(-c2cccnc2C(C)OC)c2c3cc(ccc31)N1CCC[C@@H](C[C@H](NC(=O)[C@H](C(C)C)N(C)C(=O)[C@H]3CCN(C(=O)C#CC(C)(C)N4CCC4)C3)C(=O)N3CCC[C@H](N3)C(=O)OCC(C)(C)C2)C1 (stereo partly drawn) | > 10 µM
CCn1c(-c2cccnc2C(C)OC)c2c3cc(ccc31)N1CCO[C@@H](C[C@H](NC(=O)[C@@H](COC3CCN(C(=O)C#CC(C)(C)N(C)C)CC3)C(C)C)C(=O)N3CCC[C@H](N3)C(=O)OCC(C)(C)C2)C1 (stereo partly drawn) | > 10 µM

Then there is this molecule:
Suppose we examine the molecule CCn1c(-c2cccnc2C(C)OC)c2c3cc(ccc31)-c1cccc(c1)C[C@H](NC(=O)[C@@H](COC1CN(C(=O)C#C[C@H]3COCCN3C)C1)C(C)C)C(=O)N1CCC[C@H](N1)C(=O)OCC(C)(C)C2 (stereo partly drawn) ; what IC50 value has been reported?
> 10 µM

---

experiment: Biochemical Assay: A variety of Ras proteins may be inhibited by compounds of the present invention (e.g., K-Ras, N-Ras, H-Ras, and mutants thereof at positions 12, 13 and 61, such as G12C, G12D, G12V, G12S, G13C, G13D, and Q61L, and others described herein). The purpose of this biochemical assay is to measure the ability of test compounds to covalently label nucleotide-loaded K-Ras isoforms. […] The sample is incubated at 25? C. for a time period of up to 24 hours prior to quenching by the addition of 10 uL of 5% Formic Acid. Quenched samples are centrifuged at 15000 rpm for 15 minutes in a benchtop centrifuge before injecting a 10 uL aliquot onto a reverse phase C4 column and eluting into the mass spectrometer with an increasing acetonitrile gradient in the mobile phase. Analysis of raw data may be carried out using Waters MassLynx MS software, with % bound calculated from the deconvoluted protein peaks for labeled and unlabeled K-Ras.
Answer each item with its documented IC50.

Known results for molecules:
molecule | IC50
CCn1c(-c2cccnc2C(C)OC)c2c3cc(ccc31)-c1cc(F)cc(c1)C[C@H](NC(=O)[C@@H](COC1CN(C(=O)C#CC(C)(C)N(C)C)C1)C(C)C)C(=O)N1CCC[C@H](N1)C(=O)OCC(C)(C)C2 (stereo not given in full) | > 10 µM
CCn1c(-c2cccnc2C(C)OC)c2c3cc(ccc31)-c1cc(cc(C(F)F)c1)C[C@H](NC(=O)C(COC1CN(C(=O)C#CC(C)(C)N(C)C)C1)C(C)C)C(=O)N1CCC[C@H](N1)C(=O)OCC(C)(C)C2 (stereo not given in full) | > 10 µM

Then there is this molecule:
Suppose we examine the molecule C=CC(=O)N1CC[C@H](C(=O)N(C)[C@H](C(=O)N[C@H]2Cc3nc(ns3)-c3ccc4c(c3)c(c(-c3cncnc3[C@H](C)OC)n4CC)CC(C)(C)CC=C[C@@H]3CCCN(N3)C2=O)C(C)C)C1 (stereo in doubt) ; what IC50 value has been reported?
> 10 µM

---

experiment: Biochemical Assay: A variety of Ras proteins may be inhibited by compounds of the present invention (e.g., K-Ras, N-Ras, H-Ras, and mutants thereof at positions 12, 13 and 61, such as G12C, G12D, G12V, G12S, G13C, G13D, and Q61L, and others described herein). The purpose of this biochemical assay is to measure the ability of test compounds to covalently label nucleotide-loaded K-Ras isoforms. […] The sample is incubated at 25? C. for a time period of up to 24 hours prior to quenching by the addition of 10 uL of 5% Formic Acid. Quenched samples are centrifuged at 15000 rpm for 15 minutes in a benchtop centrifuge before injecting a 10 uL aliquot onto a reverse phase C4 column and eluting into the mass spectrometer with an increasing acetonitrile gradient in the mobile phase. Analysis of raw data may be carried out using Waters MassLynx MS software, with % bound calculated from the deconvoluted protein peaks for labeled and unlabeled K-Ras.
experimental_readout: IC50

Suppose we examine the molecule CCn1c(-c2cccnc2C(C)OC)c2c3cc(ccc31)-c1cccc(c1)C[C@H](NC(=O)[C@@H](COC1CN(C(=O)C#C[C@H]3COCCN3C)C1)C(C)C)C(=O)N1CCC[C@H](N1)C(=O)OCC(C)(C)C2 (stereo partly drawn) ; what IC50 value has been reported?
> 10 µM

---

Answer each item with its documented IC50.
experiment: Biochemical Assay: A variety of Ras proteins may be inhibited by compounds of the present invention (e.g., K-Ras, N-Ras, H-Ras, and mutants thereof at positions 12, 13 and 61, such as G12C, G12D, G12V, G12S, G13C, G13D, and Q61L, and others described herein). The purpose of this biochemical assay is to measure the ability of test compounds to covalently label nucleotide-loaded K-Ras isoforms. […] The sample is incubated at 25? C. for a time period of up to 24 hours prior to quenching by the addition of 10 uL of 5% Formic Acid. Quenched samples are centrifuged at 15000 rpm for 15 minutes in a benchtop centrifuge before injecting a 10 uL aliquot onto a reverse phase C4 column and eluting into the mass spectrometer with an increasing acetonitrile gradient in the mobile phase. Analysis of raw data may be carried out using Waters MassLynx MS software, with % bound calculated from the deconvoluted protein peaks for labeled and unlabeled K-Ras.

compound | endpoint_result
C=CC(=O)N1CC(OCC(C(=O)N[C@H]2Cc3cc(cc(C(F)F)c3)-c3ccc4c(c3)c(c(-c3cccnc3C(C)OC)n4CC)CC(C)(C)COC(=O)[C@@H]3CCCN(N3)C2=O)C(C)C)C1 (stereo not given in full) | > 10000 nM

Then there is this compound:
Suppose we examine the compound CCn1c(-c2cnccc2COC)c2c3cc(ccc31)-c1cc(O)cc(c1)C[C@H](NC(=O)[C@H](C(C)C)N(C)C(=O)[C@H]1CCN(C(=O)C#CCN(C)C)C1)C(=O)N1CCC[C@H](N1)C(=O)OCC(C)(C)C2 (atropisomer, axis not shown) ; what IC50 value has been reported?
< 10 nM
